Item-by-item account of pEC50
- TGT: Full-length glucokinase (beta cell isoform) (Homo sapiens, UniProt P35557)
- Construct: Full-length glucokinase (beta cell isoform) was His-tagged at N-terminus; His tag (N); made in house; host or cells: E. coli BL21(DE3), pBCGK vector
- Sequence (P35557 whole entry, canonical isoform): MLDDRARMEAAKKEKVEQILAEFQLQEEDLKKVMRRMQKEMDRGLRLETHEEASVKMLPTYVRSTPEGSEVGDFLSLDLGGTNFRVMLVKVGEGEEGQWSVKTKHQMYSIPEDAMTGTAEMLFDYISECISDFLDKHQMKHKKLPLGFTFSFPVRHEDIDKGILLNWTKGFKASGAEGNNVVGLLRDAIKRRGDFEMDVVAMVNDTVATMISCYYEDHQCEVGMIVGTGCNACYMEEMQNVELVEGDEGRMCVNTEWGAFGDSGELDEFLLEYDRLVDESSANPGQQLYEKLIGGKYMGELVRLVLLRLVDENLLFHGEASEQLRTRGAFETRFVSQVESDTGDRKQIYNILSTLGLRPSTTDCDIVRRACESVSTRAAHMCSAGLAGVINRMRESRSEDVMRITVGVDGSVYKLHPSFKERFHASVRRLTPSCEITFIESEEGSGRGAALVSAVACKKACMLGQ
- METHOD SUMMARY: Glucokinase activation assay (PK/LDH-coupled, NADH depletion at 340 nm)
- Type: biochemical
- EXPERIMENTAL PARAMETERS: 5 mM glucose, 2.5 mM ATP, pH 7.1, room temperature; single value or range where N>1; read-out: EC50
Please express pEC50 as -log10 of the molar concentration.

The cases that follow already have their pEC50 on record.
Requested read-out: pEC50. Entry: "CCn1ncc(NC(=O)[C@H](CC2CCCC2)n2cnc(C(F)(F)F)c2)n1"
5.66

Requested read-out: pEC50. Entry: "CS(=O)(=O)c1cnn([C@@H](CC2CCCC2)C(=O)Nc2ccc(C(=O)O)cn2)c1"
5.15

Requested read-out: pEC50. Entry: "Cc1cnc(NC(=O)[C@H](CC2CCCC2)n2cc(S(C)(=O)=O)cn2)cn1"
4.96

Requested read-out: pEC50. Entry: "O=C(Nc1nc2cccnc2s1)[C@H](CC1CCOCC1)n1cnc(C(F)(F)F)c1"
4.74

Requested read-out: pEC50. Entry: "Cn1ccc(NC(=O)[C@H](CC2CCCC2)n2cc(S(C)(=O)=O)cn2)n1"
4.26

---
Requested read-out: pEC50. Entry: "Cc1cnc(NC(=O)[C@H](CC2CCCC2)n2cnc(S(=O)(=O)C(C)C)c2)cn1"
5.00

Requested read-out: pEC50. Entry: "CCn1ccc(NC(=O)[C@H](CC2CCCC2)n2cc(S(C)(=O)=O)cn2)n1"
4.49

Requested read-out: pEC50. Entry: "Cc1ccc(NC(=O)[C@H](CC2CCCC2)n2ccc(C(F)(F)F)n2)nc1"
5.26

Requested read-out: pEC50. Entry: "CC(C)S(=O)(=O)c1cnn([C@@H](CC2CCCC2)C(=O)Nc2ccc3ccccc3n2)c1"
5.09

Requested read-out: pEC50. Entry: "CCS(=O)(=O)c1cnn([C@@H](CC2CCCC2)C(=O)Nc2ccn(C)n2)c1"
5.14

Requested read-out: pEC50. Entry: "Cc1ccc(NC(=O)[C@H](CC2CCCC2)n2cnc(S(C)(=O)=O)c2)nc1"
6.10

----------
Item-by-item account of Emax
- TGT: Full-length glucokinase (beta cell isoform) (Homo sapiens, UniProt P35557)
- Construct: Full-length glucokinase (beta cell isoform) was His-tagged at N-terminus; His tag (N); made in house; host or cells: E. coli BL21(DE3), pBCGK vector
- METHOD SUMMARY: Glucokinase activation assay (PK/LDH-coupled, NADH depletion at 340 nm)
- Type: biochemical
- EXPERIMENTAL PARAMETERS: % max activation = (Va/Vo−1)×100 from fit; 5 mM glucose, pH 7.1; single value or range where N>1; read-out: Maximum Activation (%)
Give the number; % is assumed, so skip it.

Requested read-out: Emax. Entry: Cc1cnc(NC(=O)[C@H](CC2CCCC2)n2cc(S(C)(=O)=O)cn2)cn1 [Example 14]
122

Requested read-out: Emax. Entry: CS(=O)(=O)c1cnn([C@@H](CC2CCCC2)C(=O)Nc2ccc(C(=O)O)cn2)c1 [Example 24]
145

As a next step, examine the compound that follows.
Requested read-out: Emax. Entry: Cc1ccc(NC(=O)[C@H](CC2CCCC2)n2cc(S(C)(=O)=O)cn2)nc1 [Example 8]
100
